System: COLO 205 colon
procedureSummary: NCI tumour cell line growth inhibition, 48 h
attributeMeasured: TGI

[[record]]
compound = "NCCN(CCN(C(=O)Nc1ccccc1)c1ccccc1)C(=O)Nc1ccccc1"
assayedtarget = "COLO 205 colon"
testvalue = "67.4 µM"


[in] // query TGI value for entry COCC#C[C@@]1(O)CCCCC1CC(OC)OC (stereo partly specified)
[out] > 100 µM

[in] Try "Cc1cccc(NC(=O)c2sc3nc4c(cc3c2N)CCCC4)c1C" next.
[out] 27.6 µM

[in] Try CC[N+]1(C)CCC(O)(c2ccc(C)cc2)C(C(=O)c2ccc(C)cc2)C1 (stereo unspecified) next.
[out] 55.7 µM

###

Tested on: SK-MEL-2 melanoma
procedureSummary: NCI tumour cell line growth inhibition, 48 h
attributeMeasured: TGI

Look over these answered cases.
[[record]]
compound = "COc1ccc2nc(-c3ccccc3)cc(Nc3cccc(/C(C)=N\\O)c3)c2c1"
assayedtarget = "SK-MEL-2 melanoma"
testvalue = "> 100 µM"

[[record]]
compound = "CCOC(=O)/C=C(/C=C\\COC1CCCCO1)c1ccccc1 (stereo not drawn)"
assayedtarget = "SK-MEL-2 melanoma"
testvalue = "> 100 µM"

[[record]]
compound = "CCCCCCCCCCCCOCCOCCOCCOCCOCCOCC(=O)NC(Cc1ccccc1)C(=O)Oc1ccc([N+](=O)[O-])cc1 (stereo not drawn)"
assayedtarget = "SK-MEL-2 melanoma"
testvalue = "47.9 µM"

[[record]]
compound = "NC(Cc1[nH]nc2ccccc12)C(=O)O (stereo not drawn)"
assayedtarget = "SK-MEL-2 melanoma"
testvalue = "> 100 µM"

[[record]]
compound = "Clc1ccccc1NN(Cc1ccccn1)c1ccccc1Cl"
assayedtarget = "SK-MEL-2 melanoma"
testvalue = "32.6 µM"

[[record]]
compound = "C=C1C[C@@H]2CC[C@@]34C[C@H]5O[C@H]6[C@@H](O3)[C@H]3O[C@H](CC[C@@H]3O[C@H]6[C@H]5O4)CC(=O)C[C@@H]3[C@@H](OC)[C@@H](C[C@H](O)CN)O[C@H]3C[C@H]3O[C@@H](CC[C@@H]1O2)C[C@@H](C)C3=C"
assayedtarget = "SK-MEL-2 melanoma"
testvalue = "> 0.167 µM"

[[record]]
compound = "Cc1cc(Cl)ccc1NC(=O)C(=O)Cc1nc2ccc(C(=O)c3ccccc3)cc2[nH]c1=O"
assayedtarget = "SK-MEL-2 melanoma"
testvalue = "> 100 µM"


Okay, next one:
[in] // query TGI value for entry "COC(=O)c1nc(NN)[nH]c(=O)c1CCCCCc1c(C(=O)OC)[nH]c(NN)cc1=O"
[out] > 100 µM

###

System: NCI-H23 lung
procedureSummary: NCI tumour cell line growth inhibition, 48 h
attributeMeasured: TGI

[[record]]
molecule = "COc1ccc(C2=C(Cl)C(=O)O/C2=C\\c2ccc(OC)c(Br)c2)cc1Cl"
testvalue = "32 µM"

[[record]]
molecule = "Cc1ccc(C(=O)Cc2nc3c([nH]c2=O)c(C)nn3-c2ccccc2)c(C)c1"
testvalue = "> 10 µM"

[[record]]
molecule = "CC(=O)C1(O)CCC2(O)C3(O)CC=C4CC(O)CCC4(C)C3CC(OC(=O)c3ccc(O)cc3)C12C (stereo not drawn)"
testvalue = "> 100 µM"


[in] // query TGI value for entry "Nc1c(S(N)(=O)=O)cc(S(N)(=O)=O)cc1S(N)(=O)=O"
[out] > 100 µM

[in] Try "COc1ccc(OC/C(N=Cc2ccncc2)=N/NC(=O)c2ccncc2)cc1" next.
[out] > 100 µM

[in] Try "Cc1ccc(S(=O)(=O)c2c(O)c3ccc(O)c(C)c3oc2=O)cc1" next.
[out] > 100 µM

[in] Try C#CCOCC12C=CC(O1)C1COC(=O)C12 (stereo not drawn) next.
[out] > 100 µM

[in] Try CC1(C)O[C@H]2OC3CCC(=O)CC3(O)[C@H]2O1 (stereo partly drawn) next.
[out] > 100 µM

###

Tested on: OVCAR-8 ovarian
procedureSummary: NCI tumour cell line growth inhibition, 48 h
attributeMeasured: TGI

[[record]]
compound = "O=C(O)C1=NN(c2ccc(S(=O)(=O)O)cc2)C2(C1)C(Cl)C(=O)N2c1nc2ccccc2s1 (stereo unspecified)"
testvalue = "38.8 µM"

[[record]]
compound = "Cc1ccc2c(c1C)CC1(Cc3c(C)ccc(C)c3C1=O)C2=O (stereo unspecified)"
testvalue = "> 100 µM"

[[record]]
compound = "CCCCCCCCCCCCNC(=O)CCC(NC(=O)c1ccc(N(C)Cc2cnc3nc(N)nc(N)c3n2)cc1)C(=O)NCCCCCCCCCCCC (stereo unspecified)"
testvalue = "> 100 µM"

[[record]]
compound = "Fc1cccc(Cl)c1C1SCc2nc3ccccc3n21 (stereo unspecified)"
testvalue = "> 100 µM"

[[record]]
compound = "O=C1c2cccnc2S(=O)(=O)N1c1ccc([N+](=O)[O-])cc1"
testvalue = "> 100 µM"


Okay, next one:
[in] // query TGI value for entry "S=c1[nH]nc(Cn2c3ccc(Br)cc3c3nc4ccccc4nc32)n1C1CCCCC1"
[out] > 67.5 µM

###

Tested on: UACC-257 melanoma
procedureSummary: NCI tumour cell line growth inhibition, 48 h; in the data active means GI50 below about 0.43 µM; inactive means the rest
Pick one and only one: true (1) (active), false (0) (inactive)

[in] // return assay outcome for "Cc1ccc(C(=O)Nc2ccc(CN3CCN(C)CC3)c(C(F)(F)F)c2)cc1C#Cc1cnc(N)c2ccc(F)cc12"
[out] false (0)

[in] Try COc1cc(/C=C2\CN(C)CC3=C2Nc2nc(SC)[nH]c(=O)c2C3c2cc(OC)c(OC)c(OC)c2)cc(OC)c1OC (centres undefined) next.
[out] false (0)

[in] Try "CC(=O)c1cccc(N(/C=C/C(=O)C(F)(F)F)CC(=O)c2ccc(Cl)cc2)c1" next.
[out] false (0)

[in] Try "Cc1cccc(NC(=O)c2sc3nc4c(cc3c2N)CCCC4)c1C" next.
[out] false (0)

[in] Try "O=C(Nc1ccc(OC(F)(F)F)cc1)c1sccc1NCc1ccnc2ccccc12" next.
[out] false (0)

[in] Try "Cc1cc(N(CCNc2ccnc3cc(Cl)ccc23)Cc2ccc3c(c2)OCO3)nc(N2CCN(C)CC2)n1" next.
[out] false (0)

[in] Try "C#C[C@]1(O)CC[C@H]2[C@@H]3CC=C4c5nc(Nc6ccccn6)sc5CC[C@]4(C)[C@H]3CC[C@@]21C" next.
[out] false (0)

[in] Try "Nc1cc(N)c2nc(-c3ccccc3)c(Oc3ccc(F)cc3)nc2c1" next.
[out] false (0)

[in] Try "CNC(=O)Nc1ccc(-c2nc(N3CCOCC3)nc3c2cnn3C2CCOCC2)cc1" next.
[out] true (1)

###

Reported TGI values follow for various compounds
System: NCI-H23 lung
procedureSummary: NCI tumour cell line growth inhibition, 48 h

Look over these answered cases.
[[record]]
compound = "C/C(=N/N(C=O)C[n+]1ccccc1)C(CN(CC(C)C)CC(C)C)C(=O)Nc1ccc(C)cc1C (stereo not drawn)"
testvalue = "> 100 µM"

[[record]]
compound = "COc1cc2cc(Oc3ccc(NC(=O)c4cccc(C(F)(F)F)c4)cc3)c(C)nc2cc1OC"
testvalue = "> 100 µM"

[[record]]
compound = "O=C(Nc1ccc(OC(F)(F)F)cc1)c1sccc1NCc1ccnc2ccccc12"
testvalue = "19.6 µM"

[[record]]
compound = "Cc1cc(O)c2c(c1)C(O)(c1ccc3c(c1O)C(=O)c1c(O)cc(C)cc1C3(O)C1OC(CO)C(O)C(O)C1O)c1cccc(O)c1C2=O (stereo not drawn)"
testvalue = "31.2 µM"

[[record]]
compound = "C[n+]1c(-c2ccc(NC(=O)c3ccc(C(=O)Nc4ccc(-c5cn6ccccc6[n+]5C)cc4)cc3)cc2)cn2ccccc21"
testvalue = "> 100 µM"


[in] // query TGI value for entry "Clc1ccc([O][In]([O]c2ccc(Cl)cn2)[O]c2ccc(Cl)cn2)nc1"
[out] > 100 µM

[in] Try "COc1cc(Nc2ccnc(N3CCN(c4ccnc5cc(Cl)ccc45)CC3)n2)cc(OC)c1" next.
[out] > 100 µM

[in] Try COc1cc2c3cc1Oc1c(OC)c(OC)cc4c1C(Cc1ccc(O)c(c1)Oc1ccc(cc1)CC3N(C)CC2)CN(C)C4 (stereo not drawn) next.
[out] 34.9 µM

[in] Try "Cc1cc(Cl)ccc1NC(=O)C(=O)Cc1nc2ccc(C(=O)c3ccccc3)cc2[nH]c1=O" next.
[out] > 100 µM

###

Test system: CCRF-CEM leukemia
procedureSummary: NCI tumour cell line growth inhibition, 48 h
Reported TGI values follow for various compounds
Quick reminder: number only, in µM, skip the unit.

[[record]]
smilesinput = "CC(C)c1ccc2nc3ccc(C(=O)NCCN(C)C)cn3c(=O)c2c1"
unitabbreviation = "µM"
testvalue = 32.1


[in] // query TGI value for entry "O=C(O)c1cc[c]([Hg][S]c2ncnc3nc[nH]c23)cc1"
[out] 21.8

[in] Try "Clc1ccc(OCc2nnc(COc3ccc(OCc4nnc(COc5ccc(Cl)cc5Cl)o4)c(Cl)c3)o2)c(Cl)c1" next.
[out] 38.5
